Tested on: Wild type
Test: S. aureus survival, RN4220 and DeltatarO strains – OD600, teichoic acid synthesis inhibitors, primary screen (AID 463173)
Settings: S. aureus RN4220 wild type/DeltatarO growth, OD600, 18 h, stronger effect = lower value, screened at 18.75 µg/mL (by protocol)
Hit rate of the full screen: of about 52,000 compounds, about 1,700 (3.3%) were called active. What follows is part of a selection rich in actives, with near analogues and random picks from the rest.
survival less than 80% is True; survival greater than or equal to 80% is False.

| Molecule | Assay System | Assigned Class |
| --- | --- | --- |
| Cc1ccc2ncc(C(=O)NCc3ccccc3Cl)c(=O)n2c1 | Wild type | False |
| COc1ccc(C2C=C(c3ccc(Cl)cc3)Nc3nc(-c4ccc(Cl)cc4)nn32)cc1 (stereo unspecified) | Wild type | False |
| COc1ccc(C)cc1NC(=O)c1nnn(CC(=O)Nc2c(C)cccc2C)c1N | Wild type | True |
| Cc1ccc(C2C=C(c3ccc(Cl)cc3)Nc3nc(NS(=O)(=O)c4ccccc4)nn32)cc1 (stereo unspecified) | Wild type | True |
| COC(=O)CSc1nc(N)c(C#N)c(-c2ccccc2)c1C#N | Wild type | False |

* * *

System: Wild type
Test: S. aureus survival, RN4220 and DeltatarO strains – OD600, teichoic acid synthesis inhibitors, primary screen (AID 463173)
Details: S. aureus RN4220 wild type/DeltatarO growth, OD600, 18 h, stronger effect = lower value, screened at 18.75 µg/mL (by protocol)
About 1,700 (3.3%) of roughly 52,000 compounds were called active. Many of the other results were omitted from the sample, so actives are more common in it than they were.
Reported survival is given for each of the following compounds.

| Compound | U | survival |
| --- | --- | --- |
| Cc1ccc(Cl)cc1N1CCN(C(c2ccc(F)cc2)c2nnc(-c3ccccc3)o2)CC1 (stereo not given) | % | 50 |
| CCCCSc1nc(-c2cccc(OC)c2)nc2c1Cc1c(CO)cnc(C)c1O2 | % | 86 |
| CCOc1ccc(Cn2c(-c3ccc(OCC)c(OC)c3)nc3ccccc32)cc1OC | % | 94 |
| CCCCCn1c(-c2cccc(C)c2)nc2ccccc21 | % | 11 |
| COC(=O)CCN(c1ccccc1)S(=O)(=O)c1cc(-c2cc(C)no2)ccc1OC | % | 90 |
| Cc1cccc(N2CCN(C(c3ccc(F)cc3)c3nnc(-c4ccccc4)o3)CC2)c1C (stereo not given) | % | 28 |
| COc1ccccc1N(C)C(=O)Cn1c(=O)oc2cc(S(=O)(=O)N3CCCC3)ccc21 | % | 127 |
| Cc1c(NC(=O)C(C)(C)Oc2ccc(Cl)cc2)cccc1-c1nc2ncccc2o1 | % | -3 |
| CC(C)(Oc1ccc(Cl)cc1)C(=O)Nc1ccc(-c2nc3ncccc3o2)cc1 | % | 74 |
| COc1c(Cl)cc(Cl)cc1C(=O)Nc1cccc(-c2nc3ccccc3o2)c1C | % | 125 |
| CCc1ccc(-c2[nH]c3c(c2-c2c(-n4cccc4)n(C)c(=O)n(C)c2=O)c(=O)n(C)c(=O)n3C)cc1 | % | 105 |
| CCOC(=O)c1cnc2ccc(C)cc2c1Nc1ccc(OCc2ccccc2Cl)cc1 | % | 4 |
| Cc1ccc(CN2CCN(C3CCN(C(=O)OC(C)(C)C)CC3)C(=O)C2=O)cc1 | % | 124 |
| CCCC(C(=O)Nc1cc(C)c(Cl)cc1OC)N1Cc2ccccc2C1=O (stereo not given) | % | 71 |
| Cc1ccc2sc(N3CCN(C(=O)CCS(=O)(=O)c4ccc(F)cc4)CC3)nc2c1C | % | 82 |
| O=C(CC1N=C2c3ccccc3N=C(SCC(=O)Nc3ccccc3F)N2C1=O)NCc1cccs1 (stereo not given) | % | 73 |
| O=C(CS(=O)(=O)c1cccc2nsnc12)NCc1ccccc1Cl | % | 136 |
| COc1ccc2c(Sc3ccccc3)c(C(=O)NCc3ccc(OC(C)C)cc3)[nH]c2c1 | % | 125 |
| Cc1cc(NC(=O)C(C)(C)Oc2ccc(Cl)cc2)cc(-c2nc3ncccc3o2)c1O | % | 92 |
| CCCCCOc1ccc(/C=C/C(=O)Nc2sc(C)c(C)c2C(=O)OCC)cc1OC | % | 132 |
| CCCCCn1c(CCCNC(=O)c2ccccc2OC)nc2ccccc21 | % | 68 |
| O=C(CC1N=C2c3ccccc3N=C(SCc3ccccc3F)N2C1=O)NCc1cccs1 (stereo not given) | % | 75 |
| COc1cccc(-c2nn(C)c3sc(C(=O)N4CCN(c5cccc(C)c5)C(C)C4)cc23)c1 (stereo not given) | % | 72 |
| Cc1ccc2oc(-c3ccc(C)c(NC(=O)C(C)(C)Oc4ccc(Cl)cc4)c3)nc2c1 | % | 43 |
| COc1ccc(-c2nc(CNC(=O)Nc3ccccc3)c(C)o2)cc1 | % | 84 |
| CCOc1ccc(CCNC(=O)Cn2ncc3c(=O)oc4ccc(C)cc4c32)cc1 | % | 80 |
| O=C(NCc1ccc2c(c1)OCO2)C1CCN(c2ccc(S(=O)(=O)N3CCCC3)cc2)CC1 | % | 101 |
| CCCCCn1c(-c2ccc(OC)c(OC)c2)nc2ccccc21 | % | 1 |
| CCCCCn1c(CCNC(=O)c2cccc(C)c2)nc2ccccc21 | % | 2 |
| CCn1cc2nc(SCc3cccc(C(F)(F)F)c3)n(Cc3ccc(Cl)cc3)c(=O)c2n1 | % | 146 |
| CCOc1ccc(-n2cc(-c3ccccc3)c3c(NCCc4ccccc4)ncnc32)cc1 | % | 74 |
| COc1cccc2sc(N3CCN(C(=O)CS(=O)(=O)c4ccc(Cl)cc4)CC3)nc12 | % | -6 |
| Cc1cccc(N2CCN(C(c3ccccc3)c3nnc(-c4ccccc4Cl)o3)CC2)c1C (stereo not given) | % | 52 |
| CC(C)Oc1ccc(CNC(=O)C2CCN(Cc3cc4ccccc4n3Cc3ccccc3)CC2)cc1 | % | 93 |
| Cc1ccc(C)c(N2CCN(C(c3ccccc3)c3nnc(-c4ccccc4)o3)CC2)c1 (stereo not given) | % | 1 |
| CCOC(=O)c1cnc2ccc(OC)cc2c1Nc1ccc(OCc2ccccc2Cl)cc1 | % | 6 |
| CCOC(=O)c1cnc2ccc(OC)cc2c1Nc1cccc(C(C)=O)c1 | % | 2 |
| Cc1ccc(S(=O)(=O)CC(=O)N2CCN(c3nc4c(F)cccc4s3)CC2)cc1 | % | -6 |
| Cc1cccc(N2CCN(C(c3ccccc3)c3nnc(-c4ccccc4F)o3)CC2)c1C (stereo not given) | % | 43 |
| Cc1ccc(Cl)cc1N1CCN(C(=O)CCS(=O)(=O)c2cc(Br)cc3c2N(C(=O)C2CC2)CC3)CC1 | % | 80 |

* * *

Test system: Wild type
Experiment: S. aureus survival, RN4220 and DeltatarO strains – OD600, teichoic acid synthesis inhibitors, primary screen (AID 463173)
Conditions: S. aureus RN4220 wild type/DeltatarO growth, OD600, 18 h, screened at 18.75 µg/mL (by protocol)
The campaign covered roughly 52,000 compounds. About 1,700 (3.3%) were called active. Cut-off read from the data, not from the text of the source: active = survival mostly below about 52% (no sharp cut-off); inactive = mostly above about 56%. The entries come from a sample that favours actives as a whole.
Outcomes: active, inactive

| Smiles String | Assigned Class |
| --- | --- |
| CCOC(=O)c1c(C)oc2c1cc(NS(=O)(=O)c1ccc(C)cc1)c1ccccc12 | inactive |
| Cc1cccc2c1-c1sc(C(=O)N(C)c3cccc(Cl)c3)cc1CO2 | active |
| COc1ccc(-c2nnc3n2N(C(C)=O)C(c2ccc(Cl)c(Cl)c2)=C(C(C)=O)S3)cc1 | active |
| Cc1cccc2c1-c1sc(C(=O)N(C)c3cccc(C(F)(F)F)c3)cc1CO2 | inactive |
| COC(=O)c1c(C)oc2c1cc(NS(=O)(=O)c1c(C)cc(C)cc1C)c1ccccc12 | active |
| CCc1ccccc1N(C)C(=O)c1cc2c(s1)-c1c(C)cccc1OC2 | inactive |
| COc1ccc(NC(=O)c2cc3c(s2)-c2c(C)cccc2OC3)c(OC)c1 | inactive |
| COc1ccc(OC)c(S(=O)(=O)Nc2cc3c(C(C)=O)c(C)oc3c3ccccc23)c1 | inactive |
| COc1ccc(N(C)C(=O)c2cc3c(s2)-c2c(C)cccc2OC3)c(OC)c1 | active |
| CC(=O)C1=C(c2ccc(Cl)c(Cl)c2)N(C(C)=O)n2c(nnc2-c2ccccc2)S1 | inactive |

* * *

System: Wild type
Assay: S. aureus survival, RN4220 and DeltatarO strains – OD600, teichoic acid synthesis inhibitors, primary screen (AID 463173)
Settings: S. aureus RN4220 wild type/DeltatarO growth, OD600, 18 h, screened at 18.75 µg/mL (by protocol)
About 1,700 (3.3%) of roughly 52,000 compounds were called active. No stated cut-off is given here; in the data, active means survival mostly below about 52% (no sharp cut-off); inactive means mostly above about 56%. The full list was thinned out, with actives kept by preference.
Outcome codes: y (active), n (inactive)

| Compound | Assigned Class |
| --- | --- |
| Cc1ccc(Cl)cc1NC(=O)CN1C(=O)C(C)(C)c2cc(S(=O)(=O)N3CCCCC3)ccc21 | y |
| O=C(Cc1ccccc1)Nc1cccnc1 | n |
| Cc1c(Cl)cccc1NC(=O)CC(c1cccs1)N1Cc2ccccc2C1=O (stereo not given) | y |
| COc1ccc(Cl)cc1NC(=O)CN1C(=O)C(C)(C)c2cc(S(=O)(=O)N3CCCCC3)ccc21 | n |
| COc1ccc(NC(=O)CN2C(=O)CCc3cc(S(=O)(=O)N4CCOCC4)ccc32)c(OC)c1 | n |
| Cc1c(Cl)cccc1NC(=O)CC(c1ccc(F)cc1)N1Cc2ccccc2C1=O (stereo not given) | y |
| Cc1csc2nc(-c3cccc(NC(=O)C(C)C)c3)cn12 | n |
| CCn1nnc2cc(C(=O)Nc3cccc(Cl)c3)ccc21 | n |
| Cc1cc(C(F)F)n2ncc(C(=O)NCc3ccccc3)c2n1 | n |
| CCOc1ccccc1NC(=O)CC(c1ccc(F)cc1)N1Cc2ccccc2C1=O (stereo not given) | n |
